Taken from patent US20150086555A1.

# testedOn: recombinant soluble homotrimeric HA of A/duck/Yangzhou/02/05 (H8N4) (Influenza A virus A/duck/Yangzhou/02/2005(H8N4))
# test: HA microarray, BCC supernatant
# measurementConditions: remark: other sources report otherwise
parameterMeasured: Trimeric HA Binding: RLU (RLU)
Numeric answer only, unit RLU assumed.

Problem: Determine its reported Trimeric HA Binding: RLU: TCN-526 (5084_C17) (antibody, V domains shown) VH: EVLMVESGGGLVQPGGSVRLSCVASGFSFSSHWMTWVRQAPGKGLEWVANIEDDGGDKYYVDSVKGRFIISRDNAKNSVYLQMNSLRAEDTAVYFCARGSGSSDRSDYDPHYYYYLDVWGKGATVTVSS VL: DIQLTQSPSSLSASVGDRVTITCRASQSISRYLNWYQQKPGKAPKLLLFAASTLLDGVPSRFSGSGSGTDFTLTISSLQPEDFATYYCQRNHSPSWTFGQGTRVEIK
Solution: 596

Problem: Give the value of Trimeric HA Binding: RLU reported for the following: TCN-544 (5082_A19) (antibody, V domains shown) VH: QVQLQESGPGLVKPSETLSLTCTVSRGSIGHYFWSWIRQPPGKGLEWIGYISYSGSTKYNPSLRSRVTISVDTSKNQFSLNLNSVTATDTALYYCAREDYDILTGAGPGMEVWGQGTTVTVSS VL: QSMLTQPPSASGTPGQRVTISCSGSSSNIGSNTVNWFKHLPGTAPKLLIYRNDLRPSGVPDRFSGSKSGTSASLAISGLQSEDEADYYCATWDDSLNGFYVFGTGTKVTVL
Solution: 464

Problem: Fill in Trimeric HA Binding: RLU for record TCN-528 (5087_P17) (antibody, V domains shown) VH: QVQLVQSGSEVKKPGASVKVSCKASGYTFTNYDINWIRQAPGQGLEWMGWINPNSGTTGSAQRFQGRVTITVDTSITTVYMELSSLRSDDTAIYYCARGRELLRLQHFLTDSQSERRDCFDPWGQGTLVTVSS VL: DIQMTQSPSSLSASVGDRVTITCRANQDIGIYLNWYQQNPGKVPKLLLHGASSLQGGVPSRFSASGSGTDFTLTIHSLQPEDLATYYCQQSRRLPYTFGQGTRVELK
Solution: 38400
